Values were extracted from ChEMBL document CHEMBL3988442.

Species on record: Homo sapiens
Experiment: To identify inhibition of the IFN signalling (Jak-Stat) pathway via expression of an eGFP reporter gene under the control of an IFN-stimulated response element (ISRE) containing MxA promoter.
Format: functional
Set-up: scale not given: direction of the effect not stated beside the values
Conditions: 30 µM
Quantity Kind: Percent Effect
Answer with the value and then the unit.

# Compound, Percent Effect
records = [
    ("Cc1nc(C)n(CC2CCCN(c3ncnc4sccc34)C2)n1 (stereo unspecified)", "65.9%"),
]

State the recorded Percent Effect for every item in the following list.
1. Cc1nc(C2CCCN2CC(=O)N(Cc2ccsc2)C2CC2)no1 (stereo unspecified)
2. CCN(CC)S(=O)(=O)N1CCCC(c2ccc(C(=O)O)cc2)C1 (stereo unspecified)
3. O=C(c1cc(=O)[nH]c(=O)[nH]1)N1CCCCC1c1ccc(F)cc1 (stereo unspecified)
4. CCCC(=O)Nc1sc(C(=O)OCC)c(C)c1C#N
5. CCn1cc(C(=O)NC2CCN(S(C)(=O)=O)CC2)c2ccccc21

1: 25.6%; 2: -0.683%; 3: -0.138%; 4: -0.547%; 5: 6.18%
